target: UniProt A0A2K5UV19; assay: functional cellular assay measuring calcium flux in CXCR3 transfected cells (block of CXCR3/IP-10 interaction); details: IP-10 induced intracellular calcium flux; Cyno-CHO cells stably expressing recombinant CXCR3 and G-alpha-16
OBSERVED_PROPERTY: pIC50
API: returns pIC50 as number; meaning -log10 of concentration in mol/L.

Past entries and their recorded results:
| COMPOUND_STRUCTURE_STRING | OBSERVED_PROPERTY | MEASUREMENT |
| --- | --- | --- |
| O=C(Nc1ccncc1)c1ccccc1N1CCN(C(=O)Cc2noc3ccccc23)CC1 | pIC50 | 8.18 |
| O=C(Nc1cc(Cl)cnc1N1CCN(C(=O)CN2CCCCC2=O)CC1)c1cccc(Cl)c1 | pIC50 | 8.11 |
| O=C(NCC(=O)N1CCN(c2ccccc2C(=O)Nc2cccnc2)CC1)c1ccc2c(c1)OCO2 | pIC50 | 7.88 |

Data request: Query: pIC50; subject: `COc1ccc(C(=O)N(C)CC(=O)N2CCN(c3ccccc3C(=O)Nc3ccncc3)CC2)cc1F`
Data returned: 7.82

Data request: Which pIC50 value is on record for `Cc1cc(C)n(CC(=O)N2CCN(c3ccccc3C(=O)Nc3cnc4c(c3)c(=O)n(C)c(=O)n4C)CC2)n1` ?
Data returned: 7.94

Data request: Looking for the measured pIC50 of `Cc1cc(C)n(CC(=O)N2CCN(c3ccccc3C(=O)Nc3ccc(N4CCOCC4)nc3)CC2)n1` , can you help?
Data returned: 7.90

====

target: CXCR3 (Macaca fascicularis); test: functional cellular assay measuring calcium flux in CXCR3 transfected cells (block of CXCR3/IP-10 interaction); type: cell-based; details: IP-10 induced intracellular calcium flux; Cyno-CHO cells stably expressing recombinant CXCR3 and G-alpha-16
OBSERVED_PROPERTY: IC50 (nM)
API: value field is a number in nM; no unit string.

| COMPOUND_STRUCTURE_STRING | TGT | OBSERVED_PROPERTY | UOM | MEASUREMENT |
| --- | --- | --- | --- | --- |
| Cc1cc(C)n(CC(=O)N2CCN(c3ccccc3C(=O)Nc3nc4cc(Cl)ccc4s3)CC2)n1 | CXCR3 (Macaca fascicularis) | IC50 | nM | 17 |
| O=C(Nc1ccnc(C(F)(F)F)c1)c1ccccc1N1CCN(C(=O)CN2CCCCC2=O)CC1 | CXCR3 (Macaca fascicularis) | IC50 | nM | 11 |
| COc1ccc(C(=O)N(C)CC(=O)N2CCN(c3ccccc3C(=O)Nc3ccncc3)CC2)cc1 | CXCR3 (Macaca fascicularis) | IC50 | nM | 15 |
| Cc1cc(C)n(CC(=O)N2CCN(c3ccccc3C(=O)Nc3ccc(C(F)(F)F)nc3)CC2)n1 | CXCR3 (Macaca fascicularis) | IC50 | nM | 11 |
| Cc1cc(C)n(CC(=O)N2CCN(c3ccccc3NC(=O)c3ccncc3)CC2)n1 | CXCR3 (Macaca fascicularis) | IC50 | nM | 7.6 |
| O=C(NCC(=O)N1CCN(c2ccccc2C(=O)Nc2cccnc2)CC1)c1ccccc1 | CXCR3 (Macaca fascicularis) | IC50 | nM | 7.6 |

Here is another compound to look at.
Data request: Query IC50 on CXCR3 (Macaca fascicularis) for `Cc1cc(C)n(CC(=O)N2CCN(c3ccccc3C(=O)Nc3ccc4cnccc4c3)CC2)n1`
Data returned: 13

====

// reported IC50 for each item listed
target: CXCR3 (Macaca fascicularis, UniProt A0A2K5UV19); assay: functional cellular assay measuring calcium flux in CXCR3 transfected cells (block of CXCR3/IP-10 interaction); conditions: IP-10 induced intracellular calcium flux; Cyno-CHO cells stably expressing recombinant CXCR3 and G-alpha-16
Sequence (A0A2K5UV19 entry or part of it): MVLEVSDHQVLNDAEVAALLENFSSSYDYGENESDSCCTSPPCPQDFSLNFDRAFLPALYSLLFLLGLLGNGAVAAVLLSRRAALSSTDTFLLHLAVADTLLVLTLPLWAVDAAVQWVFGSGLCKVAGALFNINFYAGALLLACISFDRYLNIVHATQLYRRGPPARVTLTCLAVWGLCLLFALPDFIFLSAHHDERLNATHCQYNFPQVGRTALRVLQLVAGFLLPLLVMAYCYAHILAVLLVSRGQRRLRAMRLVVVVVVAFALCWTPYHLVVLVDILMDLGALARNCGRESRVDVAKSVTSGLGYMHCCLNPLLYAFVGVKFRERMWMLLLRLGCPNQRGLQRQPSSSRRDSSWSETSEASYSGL
Expressed in nM, but write only the number.

| COMPOUND_STRUCTURE_STRING | MEASUREMENT |
| --- | --- |
| CS(=O)(=O)c1ccc(NC(=O)c2ccccc2N2CCN(C(=O)CN3CCc4cccnc43)CC2)cc1 | 9.7 |
| Cc1cc(C)n(CC(=O)N2CCN(c3ccccc3C(=O)Nc3cnc4ccccc4c3)CC2)n1 | 4.8 |

Data request: CXCR3 (Macaca fascicularis, UniProt A0A2K5UV19) / IC50 / `Cc1ccc(NC(=O)c2ccccc2N2CCN(C(=O)Cn3nc(C)cc3C)CC2)cn1` : value?
Data returned: 5.3

Data request: Form entry - test system: CXCR3 (Macaca fascicularis, UniProt A0A2K5UV19); read-out: IC50; compound: `Cc1cc(C)n(CC(=O)N2CCN(c3ccccc3C(=O)Nc3cccc(C(F)(F)F)c3)CC2)n1`
Data returned: 8

====

Target: CXCR3 (Macaca fascicularis)
Assay: functional cellular assay measuring calcium flux in CXCR3 transfected cells (block of CXCR3/IP-10 interaction)
Settings: IP-10 induced intracellular calcium flux; Cyno-CHO cells stably expressing recombinant CXCR3 and G-alpha-16
Protocol: Compounds are assessed for the ability to block the interaction of CXCR3 and IP-10 in a functional cellular assay measuring calcium flux in CXCR3 transfected cells. […] Test compounds are dissolved in DMSO and diluted to 1.045 mM in DMSO. […] Intracellular calcium flux is recorded on the HAMAMTSU FDSS6000, using excitation at 480 nm and emission at 540 nm. Data are analyzed using Activity Base software. […]
OBSERVED_PROPERTY: IC50 (nM)
Report the figure in nM without appending any unit label.

Completed entries (count: 2):
| COMPOUND_STRUCTURE_STRING | TGT | IC50 / nM |
| --- | --- | --- |
| Cc1cc(C)n(CC(=O)N2CCN(c3ccccc3C(=O)Nc3cncc(F)c3)CC2)n1 | CXCR3 (Macaca fascicularis) | 10.8 |
| Cc1cc(C)n(CC(=O)N2CCN(c3ccccc3C(=O)Nc3ccnc(C(C)(C)C)c3)CC2)n1 | CXCR3 (Macaca fascicularis) | 8.5 |

Data request: Look up IC50: `Cc1nn(CC(=O)N2CCN(c3ccccc3C(=O)Nc3ccncc3)CC2)c(=O)c2ccccc12`
Data returned: 5.4

Data request: Query: IC50; subject: `COc1ccc(C(=O)NCC(=O)N2CCN(c3ccccc3C(=O)Nc3ccccc3)CC2)cc1OC`
Data returned: 8.1

Data request: Look up IC50: `Cc1cc(C)n(CC(=O)N2CCN(c3ccccc3C(=O)Nc3cncc(Cl)c3)CC2)n1`
Data returned: 7.6

====

Molecular target: CXCR3 (Macaca fascicularis, UniProt A0A2K5UV19)
Test: functional cellular assay measuring calcium flux in CXCR3 transfected cells (block of CXCR3/IP-10 interaction)
Details: IP-10 induced intracellular calcium flux; Cyno-CHO cells stably expressing recombinant CXCR3 and G-alpha-16
Method: Compounds are assessed for the ability to block the interaction of CXCR3 and IP-10 in a functional cellular assay measuring calcium flux in CXCR3 transfected cells. […] Test compounds are dissolved in DMSO and diluted to 1.045 mM in DMSO. […] Intracellular calcium flux is recorded on the HAMAMTSU FDSS6000, using excitation at 480 nm and emission at 540 nm. Data are analyzed using Activity Base software. […]
List of IC50 values.
The response must be a number in nM with no trailing unit.

Here are 4 compounds together with their reported answers.
| COMPOUND_STRUCTURE_STRING | IC50, nM |
| --- | --- |
| Cc1cc(C)n(CC(=O)N2CCN(c3ccccc3C(=O)Nc3nc4c(Cl)cccc4s3)CC2)n1 | 13 |
| COc1ccc(C(=O)NCC(=O)N2CCN(c3ccccc3C(=O)Nc3ccncc3)CC2)cc1 | 3.4 |
| COc1cccc(NC(=O)c2ccccc2N2CCN(C(=O)Cn3nc(C)cc3C)CC2)c1 | 4.3 |
| Cc1cc(C)n(CC(=O)N2CCN(c3ccccc3C(=O)Nc3ccncc3F)CC2)n1 | 19.5 |

Data request: Query (compound): `Cc1cc(C)n(CC(=O)N2CCN(c3ccccc3C(=O)Nc3nc(C)c(C(C)(C)C)s3)CC2)n1` ; field requested: IC50
Data returned: 11

Data request: Entry `COc1ccc(C(=O)NCC(=O)N2CCN(c3ccccc3C(=O)Nc3cccnc3)CC2)cc1F` has what IC50?
Data returned: 19.5

====

target: CXCR3 (Macaca fascicularis, UniProt A0A2K5UV19); experiment: functional cellular assay measuring calcium flux in CXCR3 transfected cells (block of CXCR3/IP-10 interaction); details: IP-10 induced intracellular calcium flux; Cyno-CHO cells stably expressing recombinant CXCR3 and G-alpha-16
OBSERVED_PROPERTY: IC50 (nM)
Write down the numeric answer in nM and omit the unit.

| COMPOUND_STRUCTURE_STRING | OBSERVED_PROPERTY | UOM | MEASUREMENT |
| --- | --- | --- | --- |
| Cc1cc(C)n(CC(=O)N2CCN(c3ccccc3NC(=O)c3cccnc3)CC2)n1 | IC50 | nM | 15 |

Shift focus to the following entry.
Data request: // IC50 lookup, key: `COc1cc(NC(=O)c2cc(F)ccc2N2CCN(C(=O)CN3CCCCC3=O)CC2)ccn1`
Data returned: 9
